Test system: SF-268 CNS
Experiment: NCI-60 one-dose screen, 48 h (100 = growth as untreated, 0 = no growth, -100 = all killed)
Details: 10 µM unless noted
About 83,000 compounds went through this panel and 20% of them were active in at least one assay; those are over-represented in the sample as a whole.
experimental_endpoint: growth (%)

>  <molecule>
CN(C)CCCN=c1cc2c(=O)n(CCCN(C)C)c(=O)c3c(NCCCN(C)C)cc4c(O)n(CCCN(C)C)c(=O)c1c4c3-2

>  <numeric_result>
1.31

$$$$
>  <molecule>
COc1ccc(N2CCN(CC(=O)N3CCN(c4nnc(-c5ccc(Cl)cc5)c(-c5ccc(Cl)cc5)n4)CC3)CC2)cc1

>  <numeric_result>
69.8

$$$$
>  <molecule>
O=c1c2ccccc2c2nccn2c2cc(Cl)ccc12

>  <numeric_result>
91.9

$$$$
>  <molecule>
C(=C1c2ccccc2-c2ccccc21)c1ccncc1

>  <numeric_result>
54.8

$$$$
>  <molecule>
CCCCNCCCN(CCCC)CCCNCCCC

>  <numeric_result>
110

$$$$
>  <molecule>
C[C@@H]1[C@H]2[C@H](C=C3[C@@H]4CC[C@H]5Cc6nc7c(nc6C[C@]5(C)[C@H]4C[C@@H](O)[C@@]32C)C[C@@H]2CC[C@H]3C4=C[C@@H]5O[C@@]6(CC[C@](C)(CO)O6)[C@@H](C)[C@@]5(O)[C@@]4(C)[C@H](O)C[C@@H]3[C@@]2(C)C7)O[C@]12CCC(C)(C)O2

>  <numeric_result>
31.2

$$$$
>  <molecule>
c1ccc(COc2ccc(Nc3ncnc4c3cnn4-c3ccccc3)cc2)cc1

>  <numeric_result>
108

$$$$
>  <molecule>
CCCCc1n(Cc2ccc3ccccc3c2)cc[n+]1Cc1ccc2ccccc2c1

>  <numeric_result>
-12.6

$$$$
>  <molecule>
COc1ccc2c(c1)[n+](=O)c(/C=C/C(=O)c1cc(OC)c(OC)c(OC)c1)c(C)n2[O-]

>  <numeric_result>
69.4

$$$$
>  <molecule>
COc1ccc(C(=O)COc2ccc(/C=C3\Oc4ccc5ccccc5c4C3=O)cc2)cc1

>  <numeric_result>
104

$$$$
>  <molecule>
Cc1cn(C(C=O)OC(C=O)CO)c(=O)[nH]c1=O (stereo not given)

>  <numeric_result>
113

$$$$
>  <molecule>
COc1ccc(-c2nnc3c4[nH]cnc4ncn23)c(OC)c1

>  <numeric_result>
33

$$$$
>  <molecule>
CCOc1nc(-c2ccco2)n2nc(-c3ccco3)cc2n1

>  <numeric_result>
106

$$$$
>  <molecule>
N#Cc1c(-c2ccccc2)cc(-c2ccccc2)n(CCC(=O)O)c1=O

>  <numeric_result>
67.4

$$$$
>  <molecule>
c1ccc2c(-c3nc4ccccc4[nH]3)cccc2c1

>  <numeric_result>
61.4

$$$$
>  <molecule>
CN(C)c1ccc(-n2nc3ccccc3n2)cc1

>  <numeric_result>
127

$$$$
>  <molecule>
CNNc1ncnc2c1cnn2-c1ccc(S(N)(=O)=O)cc1

>  <numeric_result>
106

$$$$
>  <molecule>
CC(C)N(Cc1ccccc1)c1c(Cl)ssc1=O

>  <numeric_result>
118

$$$$
>  <molecule>
COC(=O)c1cc2c(/C=C3/NC(=S)NC3=O)coc2n1C

>  <numeric_result>
37.7

$$$$
>  <molecule>
O=C1Nc2ccc(C(=O)O)c(O)c2C1=O

>  <numeric_result>
104

$$$$

All values here come from PubChem BioAssay (NCI).
